System: immortalized normal human bronchial epithelial BEAS-2B cells
Assay: IL-17A- or IL-17F-mediated cytokine response by BEAS-2B cells
Type: cell-based
Conditions: 48 h, +50 ng/ml IL-17A, read-out: EC50 values (μM), IL-6
ASSAY METRIC: EC50 (µM)
Give just the numeric value; µM need not be written.

Field: example entries. Status: answers known.
{"COMPOUND STRUCTURE": "CCOc1cc(C(=O)N2CCC(N3CCCC3)CC2)ccc1Nc1cc2c(cn1)N(C)C(=O)c1ccccc1N2C", "EC50 [µM]": 0.51}
{"COMPOUND STRUCTURE": "CCOc1cc(C(=O)N2CCC(N3CCN(C)CC3)CC2)ccc1Nc1cc2c(cn1)N(C)C(=O)c1ccccc1N2C", "EC50 [µM]": 0.68}

As a next step, examine the compound that follows.
Ask | Supply EC50 measured with immortalized normal human bronchial epithelial BEAS-2B cells for CCOc1cc(C(=O)N2CC[C@@H](N(C)C)C2)ccc1Nc1cc2c(cn1)N(C)C(=O)c1ccccc1N2C .
Reply | 0.21

Numbers sourced from patent US20170008888A1.
